# METHOD: chemical genetic growth profiling, strain panel (AID 1159580);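 also: tested at 20 µM; growth read once vehicle control cultures reached saturation at 30 °C; 1 = growth at the plate median or of vehicle wells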
# TEST CONDITIONS: S. cerevisiae deletion strains, growth OD, locus YCL061C, strain MRC1, active compounds read low
In all, about 5,500 compounds went through this assay and about 2,000 (36%) were called active. Not shown: some 18% with an inconclusive outcome. The list shows a part of the results.
The label is true for normalized growth below 1 and false for normalized growth equal to or exceeding 1.

COMPOUND | ASSIGNED CATEGORY
CCCCCCCCCCCCCCCC[n+]1ccccc1 | true
CC1(C)O[C@@H]2CC3C4C[C@H](F)C5=CC(=O)C=C[C@]5(C)[C@@]4(F)[C@@H](O)C[C@]3(C)[C@]2(C(=O)CO)O1 (some centres not stated) | false
O=c1c2ccccc2[se]n1-c1ccccc1 | true

Given CC(=O)OCC(=O)[C@H]1CCC2C3CC=C4C[C@@H](O)CC[C@]4(C)C3CC[C@@]21C (some centres not stated) , is recorded normalized growth strictly lower than 1? true

Hello, I'm reviewing records and need to know if normalized growth of CC(=O)[C@H]1CCC2C3CC=C4C[C@@H](OC(=O)CCC(=O)O)CC[C@]4(C)C3CC[C@@]21C (some centres not stated) is below 1. Could you check? true

---

# METHOD: chemical genetic growth profiling, strain panel (AID 1159580);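 also: tested at 20 µM; growth read once vehicle control cultures reached saturation at 30 °C; 1 = growth at the plate median or of vehicle wells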
# TEST CONDITIONS: S. cerevisiae deletion strains, growth OD, locus YNL207W, strain RIO2, active compounds read low
The campaign covered roughly 5,500 compounds. About 2,000 (36%) were called active. About 18% were inconclusive and are not listed. The list shows a part of the results.
Would you kindly list normalized growth for each of these compounds?
Numbers only.

SMI | normalized growth
O=C(CSCc1nc(-c2ccc(Cl)cc2)cs1)N/N=C\c1cccs1 | 0.967
Clc1ccc(-c2csc(Nc3ccccc3)n2)s1 | 0.915

Could you share which normalized growth value was measured for `Cc1csc2ncnc(N/N=C\c3ccccc3Cl)c12` ? 0.965

---

# METHOD: chemical genetic growth profiling, strain panel (AID 1159580);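 also: tested at 20 µM; growth read once vehicle control cultures reached saturation at 30 °C; 1 = growth at the plate median or of vehicle wells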
# TEST CONDITIONS: S. cerevisiae deletion strains, growth OD, locus YHR082C, strain KSP1
Among all 5,500 compounds or so, about 2,000 (36%) were called active. Inconclusive results (about 18%) are left out. No stated cut-off is given here; in the data, active means normalized growth mostly below about 0.91 (no sharp cut-off); inconclusive means no clear call, values can overlap the other calls; inactive means mostly above about 0.92. The list shows a part of the results.
Can you answer with just one of these options? active, inactive

COMPOUND | ASSIGNED CATEGORY
C/C(=N/Nc1nc(C(C)(C)C)cs1)c1ccc(Cl)c(Cl)c1 | inactive
N/C(CSc1ncccc1C(F)(F)F)=N/OC(=O)Nc1cccc(Cl)c1 | inactive
CN(C(=O)N(C)c1ccc(Cl)cc1C(=O)c1ccccc1Cl)c1ccc(Cl)cc1C(=O)c1ccccc1Cl | active
CC(C)(C)c1csc(NNC(=O)c2ccc(Cl)cc2)n1 | inactive

State the result this test recorded for `Clc1ccc(-c2csc(Nc3ccccc3)n2)s1` . active

Dear all, I need the recorded test outcome for CCC(C)COC(=O)/C=C/c1ccc(N=Cc2ccc(OC)cc2)cc1 (configuration not stated) , thank you. inactive

Given `O=C1Nc2ccccc2/C1=N/N=C\c1cc(Br)cc(Br)c1O` , state the outcome it received in this test. active

---

# METHOD: chemical genetic growth profiling, strain panel (AID 1159580);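 also: tested at 20 µM; growth read once vehicle control cultures reached saturation at 30 °C; 1 = growth at the plate median or of vehicle wells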
# TEST CONDITIONS: S. cerevisiae deletion strains, growth OD, locus YNL183C, strain NPR1, active compounds read low
Out of some 5,500 compounds screened, about 2,000 (36%) were called active. About 18% were inconclusive and are not listed. Some of the results follow.
Would you kindly list normalized growth for each of these compounds?

Dear colleague, could you please provide normalized growth for the compounds listed below?
1. O=C(/C=C/c1ccccc1)c1ccc(O)cc1
2. COc1c(O)cccc1O
3. CCC(C)COC(=O)/C=C/c1ccc(N=Cc2ccc(OC)cc2)cc1 (stereo unspecified)
4. CCn1cc(C(=O)O)c(=O)c2cc(F)c(N3CCNCC3)cc21
5. CCOC(=O)C1C(C=C(C)C)C1(C)C (stereo unspecified)

0.901 (inactive)
0.984 (inactive)
0.795 (inactive)
0.962 (inactive)
0.981 (inactive)

Look at each compound and report its normalized growth.
1. CCN1CCN(c2cc3c(cc2F)c(=O)c(C(=O)O)cn3C2CC2)CC1
2. OC1C(O)C(O)C(O)C(O)C1O (stereo unspecified)
3. CC(=O)CC(c1ccccc1)c1c(O)c2ccccc2oc1=O (stereo unspecified)
4. CCC(C)Cn1c(Sc2ncc([N+](=O)[O-])s2)n[nH]c1=O (stereo unspecified)
5. O=c1oc2ccccc2c(O)c1Cc1c(O)c2ccccc2oc1=O
6. CC(O)(CNCc1ccc(Cl)cc1)CSc1ccccc1Cl (stereo unspecified)

0.935 (inactive)
0.984 (inactive)
0.942 (inactive)
0.652 (inactive)
0.949 (inactive)
1.02 (inactive)
